Please respond with reported self-aminoacylation for every item in the list.
Test system: biotinyl-Leu-oxazolone
Assay: self-aminoacylation, catalytic enhancement (BLO) (fold over background); higher = more active; k-Seq, kA / k0A0; sequences stand for … in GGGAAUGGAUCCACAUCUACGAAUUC…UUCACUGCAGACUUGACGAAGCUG
Fewer inactive variants are shown than the library holds.
Reply: number alone, nothing else.

Field self-aminoacylation (biotinyl-Leu-oxazolone), entry AUUACCCUGUGCAUCGAGUGA [Fam2.1 aminoacylation ribozyme variant] : 5.11

Param item: UUUCACCUAGGUGAUCGGGUG [Fam2.2 aminoacylation ribozyme variant] ; param system: biotinyl-Leu-oxazolone; output self-aminoacylation: 4.15

biotinyl-Leu-oxazolone assay, sequence AGUACCCAGGUCAUCGAGUGA [Fam2.1 aminoacylation ribozyme variant] , recorded self-aminoacylation = 5.05

self-aminoacylation for biotinyl-Leu-oxazolone with input AUUACCCUGGUCAUCGUGGGA [Fam2.1 aminoacylation ribozyme variant] equals 1.58

Entry AUGCACCUAGGCCAUCGGGUG [Fam2.2 aminoacylation ribozyme variant] under biotinyl-Leu-oxazolone had self-aminoacylation of 4.53

====

System: biotinyl-Met-oxazolone
Test: self-aminoacylation, catalytic enhancement (BMO) (fold over background); higher = more active; k-Seq, kA / k0A0; sequences stand for … in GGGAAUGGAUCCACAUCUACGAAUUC…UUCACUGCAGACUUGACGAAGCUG
This sample holds only a part of the variants without activity.
endpoint-name: self-aminoacylation
API doc: respond with a numeric literal and nothing else, no unit.

Form field self-aminoacylation, entry UUACUUCAAACAAUCGGUCUC [Fam1A.1 aminoacylation ribozyme variant] : 1.17

Recorded self-aminoacylation (sequence AUUGACCUAGGUCACCGGGUG [Fam2.2 aminoacylation ribozyme variant] ): 4.69

Just so you know, measured self-aminoacylation for AUUACCCAGUUCAUCGAGUGA [Fam2.1 aminoacylation ribozyme variant] came out at 3.69

Entry AUUCACCUAGGCCCUCGGGUG [Fam2.2 aminoacylation ribozyme variant] , self-aminoacylation reported as 3.26

Entry under test: CCACACUUCAAUCAAUUGGUC [Fam1B.1 aminoacylation ribozyme variant] . Its self-aminoacylation was 0.527

====

Test system: biotinyl-Met-oxazolone
Assay: self-aminoacylation, catalytic enhancement (BMO) (fold over background); higher = more active; k-Seq, kA / k0A0; sequences stand for … in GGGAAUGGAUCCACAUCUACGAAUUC…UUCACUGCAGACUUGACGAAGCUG
This sample holds only a part of the variants without activity.
endpoint-name: self-aminoacylation
Write the value as a bare number.

The sequence UGUACCCUGGUCAUCGAGUGA [Fam2.1 aminoacylation ribozyme variant] showed self-aminoacylation equal to 5.72

For record AUUCAACUAGGUCAUAGGGUG [Fam2.2 aminoacylation ribozyme variant] the listed self-aminoacylation is 2

Briefly, self-aminoacylation measured for AUUACCGUGGUCAUGGAGUGA [Fam2.1 aminoacylation ribozyme variant] : 3.21

self-aminoacylation measured on AAGUUUGCUAAUCGACGCAAG [Fam3.1 aminoacylation ribozyme variant] = 0.581

Form field self-aminoacylation, entry AUUCACCUGGGUCAUCAGGUG [Fam2.2 aminoacylation ribozyme variant] : 1.48

====

Tested on: biotinyl-Val-oxazolone
Experiment: self-aminoacylation, catalytic enhancement (BVO) (fold over background); higher = more active; k-Seq, kA / k0A0; sequences stand for … in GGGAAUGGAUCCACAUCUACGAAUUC…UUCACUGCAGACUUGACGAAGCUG
Variants at the floor of the assay were thinned out.
Hi there, I'd appreciate the recorded self-aminoacylation for every entry that follows.

get_value(item= CUCCACCUAGGUCAUCGGGUG [Fam2.2 aminoacylation ribozyme variant] , readout=self-aminoacylation) returns 5.19

Input CCACGCUUCAUGCAAUCGGUC [Fam1B.1 aminoacylation ribozyme variant] . Output self-aminoacylation: 1.06

Value of measured self-aminoacylation for the entry GCACACUUCUAGCAAUCGGUC [Fam1B.1 aminoacylation ribozyme variant] : 1.22

The recorded self-aminoacylation for entry CCACAUUUCACGCAAUCGGUC [Fam1B.1 aminoacylation ribozyme variant] equals 2.68

====

Tested on: biotinyl-Trp-oxazolone
Experiment: self-aminoacylation, catalytic enhancement (BWO) (fold over background); higher = more active; k-Seq, kA / k0A0; sequences stand for … in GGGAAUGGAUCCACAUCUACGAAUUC…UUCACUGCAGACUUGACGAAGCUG
This sample holds only a part of the variants without activity.
So I've got a bunch of sequences here, and I need their self-aminoacylation values.
Respond with the number and no other words.

Lab note: measured self-aminoacylation of CUUCUUCAAACAAUCGGUCUC [Fam1A.1 aminoacylation ribozyme variant] was 13.6

Quick note, self-aminoacylation for CAACACCUCAAGCAAUCGGUC [Fam1B.1 aminoacylation ribozyme variant] landed at 0.997

// field: self-aminoacylation; key: AAGUUUGCUUAUUGUCGCAAG [Fam3.1 aminoacylation ribozyme variant] ; value = 0.97

response.value for CCACACUCCAAGCAAACGGUC [Fam1B.1 aminoacylation ribozyme variant] (field: self-aminoacylation) = 1.21

Per the records, this sequence ( AUUCCCCUGGUCAUCGAGUGA [Fam2.1 aminoacylation ribozyme variant] ) has self-aminoacylation equal to 8.4

The measured self-aminoacylation associated with AAUAACCUGGUCAUCGAGUGA [Fam2.1 aminoacylation ribozyme variant] reads 7.36

Entry AAGUUUGCUAUUAGACGCAAG [Fam3.1 aminoacylation ribozyme variant] — recorded self-aminoacylation = 0.55

Summary for this sequence, AUUACCCUGAUCAUCGAGUGA [Fam2.1 aminoacylation ribozyme variant] : self-aminoacylation is 9.57

The recorded self-aminoacylation for entry UAGUUUGCUAAGAGUCGCAAG [Fam3.1 aminoacylation ribozyme variant] equals 1.22

====

Give self-aminoacylation for every item shown.
System: biotinyl-Val-oxazolone
Test: self-aminoacylation, catalytic enhancement (BVO) (fold over background); higher = more active; k-Seq, kA / k0A0; sequences stand for … in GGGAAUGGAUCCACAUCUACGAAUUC…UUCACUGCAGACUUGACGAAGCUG
This sample holds only a part of the variants without activity.
# answer = number (no unit)

Short answer for AAGUUUGCUAAAAGUCGCAAU [Fam3.1 aminoacylation ribozyme variant] : self-aminoacylation was 1.17

self-aminoacylation reported for this sequence AUUCACUUAGGUUAUCGGGUG [Fam2.2 aminoacylation ribozyme variant] : 2.5

The sequence listed as UUUACCCUGGUCAUCGAGUGU [Fam2.1 aminoacylation ribozyme variant] has a reported self-aminoacylation of 26.3

Short answer for AUUCACCUUUGUCAUCGGGUG [Fam2.2 aminoacylation ribozyme variant] : self-aminoacylation was 3.11

self-aminoacylation measured on AUUUCCCUGGUCAUCGAUUGA [Fam2.1 aminoacylation ribozyme variant] = 1

====

Could you please report measured self-aminoacylation for the items listed next?
Test system: biotinyl-Phe-oxazolone
Assay: self-aminoacylation, catalytic enhancement (BFO) (fold over background); higher = more active; k-Seq, kA / k0A0; sequences stand for … in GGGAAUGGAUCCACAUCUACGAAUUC…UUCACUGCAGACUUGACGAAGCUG
Variants at the floor of the assay were thinned out.
Output spec: single numeric token, no unit.

For reference, reported self-aminoacylation for AAGCUUGCUAAUAGUCACAAG [Fam3.1 aminoacylation ribozyme variant] stands at 4.35

// field: self-aminoacylation; key: AUUAACCUAGGUCAUCGGGGG [Fam2.2 aminoacylation ribozyme variant] ; value = 3.87

Value of self-aminoacylation reported for the sequence AUUCACCUAUGUCAUCGAGUG [Fam2.2 aminoacylation ribozyme variant] is 17.2

Noted for AUCACCCCGGUCAUCGAGUGA [Fam2.1 aminoacylation ribozyme variant] : its self-aminoacylation reads 52.6

Measured self-aminoacylation of GUUACCCUGCUCAUCGAGUGA [Fam2.1 aminoacylation ribozyme variant] : 8.33

self-aminoacylation recorded for this sequence, AAGUUGGCUCAUAGUCGCAAG [Fam3.1 aminoacylation ribozyme variant] , is 2.43

The measured self-aminoacylation associated with CUACUUAAAACAAACGGUCUG [Fam1A.1 aminoacylation ribozyme variant] reads 0.836

The sequence listed as GCACACUUCAAGCAAUCGGUG [Fam1B.1 aminoacylation ribozyme variant] has a reported self-aminoacylation of 49.1

The sequence listed as CUACUUCAAACAAUCGGACAG [Fam1A.1 aminoacylation ribozyme variant] shows self-aminoacylation equal to 1.19

====

Tested on: biotinyl-Met-oxazolone
Experiment: self-aminoacylation, catalytic enhancement (BMO) (fold over background); higher = more active; k-Seq, kA / k0A0; sequences stand for … in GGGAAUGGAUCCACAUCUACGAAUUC…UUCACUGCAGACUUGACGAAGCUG
Variants at the floor of the assay were thinned out.
endpoint-name: self-aminoacylation

Input AUUACCCUGGUGAUGGAGUGA [Fam2.1 aminoacylation ribozyme variant] . Output self-aminoacylation: 5.67

Lab note: measured self-aminoacylation of AUUCACCUGCGUCAUCGGGUG [Fam2.2 aminoacylation ribozyme variant] was 7.79

# self-aminoacylation of AUUACCCUGGUCAUCGGGUGU [Fam2.1 aminoacylation ribozyme variant] = 123

The measured self-aminoacylation associated with CUACUUCAAACAAUCUAUCUG [Fam1A.1 aminoacylation ribozyme variant] reads 0.461

Consider AUUACCCGGGUCAUCGAGAGA [Fam2.1 aminoacylation ribozyme variant] . Its measured self-aminoacylation is 1.05

GET /value?item= AAGUUUACUUAUAGUCGCAAG [Fam3.1 aminoacylation ribozyme variant] &field=self-aminoacylation returns 1.92

For record AUUCGCCUAGGUCAUCGGGUA [Fam2.2 aminoacylation ribozyme variant] the listed self-aminoacylation is 46.9

Documented self-aminoacylation of UUUCACCUAGGUCAUCUGGUG [Fam2.2 aminoacylation ribozyme variant] : 1.88

self-aminoacylation in this record for CCACAUUUCACGCAAUCGGUC [Fam1B.1 aminoacylation ribozyme variant] : 2.75
